biological target: UniProt:E9AI53; test: biochemical; conditions: IC50 0 h, LbDHODH, without preincubation
measured_property: pIC50
Schema: pIC50 number; meaning minus log10 of the concentration expressed in molar units.

**Q:** // returns reported pIC50 for input COc1cc(C=C2C(=O)NC(=O)NC2=O)ccc1O [2c]
**A:** 5.15

**Q:** Another compound to check: O=C1NC(=O)C(=C/C=C/c2ccccc2)C(=O)N1 [2i]
**A:** 6.05

**Q:** Now try O=C1NC(=O)C(=Cc2ccc(O)c([N+](=O)[O-])c2)C(=O)N1 [2d] .
**A:** 5.52

**Q:** Request: O=C1NC(=O)C(=Cc2cccc(O)c2)C(=O)N1 [2g]
**A:** 4.05

**Q:** Check O=C1NC(=O)C(=Cc2ccc(N3CCOCC3)cc2[N+](=O)[O-])C(=O)N1 [2e] too.
**A:** 5.30

###

test: Cell viability / cytotoxicity assay (PrestoBlue, 72 h); format: cell-based; conditions: human; THP-1 cell line, 72 h, max 200 μM; read-out: CC50
Provide the reported CC50 at 72 h of each item.

**Q:** Reported CC50 at 72 h for O=C1NC(=O)C(=Cc2ccc(-c3ccccc3F)[nH]2)C(=O)N1 [2h] : what is it?
**A:** > 200 µM

**Q:** Next up: COc1cc(C=C2C(=O)NC(=O)NC2=O)ccc1O [2c]
**A:** > 200 µM

**Q:** Then what about the compound O=C1NC(=O)C(=Cc2cccc(O)c2)C(=O)N1 [2g] ?
**A:** 76 µM

**Q:** Now give it for O=C1NC(=O)C(=Cc2ccc(-c3ccccc3)cc2)C(=O)N1 [2f] too.
**A:** 12 µM

**Q:** Proceed to O=C1NC(=O)C(Cc2ccc(C(=O)O)cc2)C(=O)N1 [3b]
**A:** > 200 µM

**Q:** Lookup O=C1NC(=O)C(=Cc2ccccc2)C(=O)N1 [2a]
**A:** > 200 µM

###

Biological target: LbDHODH (Leishmania braziliensis, UniProt E9AI53)
Sequence (E9AI53 entry or part of it): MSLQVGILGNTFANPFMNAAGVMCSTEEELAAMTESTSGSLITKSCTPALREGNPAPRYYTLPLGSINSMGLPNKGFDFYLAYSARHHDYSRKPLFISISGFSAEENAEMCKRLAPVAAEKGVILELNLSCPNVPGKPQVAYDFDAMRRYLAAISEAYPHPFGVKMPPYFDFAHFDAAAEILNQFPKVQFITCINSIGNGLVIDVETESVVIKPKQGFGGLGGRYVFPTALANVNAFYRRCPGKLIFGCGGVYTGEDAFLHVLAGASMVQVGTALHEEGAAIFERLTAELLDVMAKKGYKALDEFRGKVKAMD
Experiment: Kinact/KI determination from LbDHODH progress curves (kobs vs inhibitor concentration)
Format: biochemical
Conditions: inhibitor 12.5 µM
Experimental: The Kinact/Ki ratio is a key parameter for evaluating the potency of covalent inhibitors, as it quantitatively measures both their reactivity and affinity for the target enzyme. […] The experiments were performed in a 96-well microplate reader (SpectraMax Plus 384, Molecular Devices, USA), containing the […] of the buffer 60 mM DCIP, 50 mM Tris pH 8.15, 150 mM KCl, 0.1% Triton X-100, 50 μM DHO and 10 μM of LbDHODH at 165 nM. […]
Exercise: state measured Kobs for each of the compounds provided.
Output spec: scalar in s⁻¹, unitless text.

**Q:** Which value of Kobs has been reported for `O=C1NC(=O)C(=Cc2ccccc2)C(=O)N1` in the records?
**A:** 0.003372

**Q:** Here is the next compound: `O=C1NC(=O)C(=C/C=C/c2ccccc2)C(=O)N1`
**A:** 0.02055

**Q:** Check `O=C1NC(=O)C(=Cc2cccc(O)c2)C(=O)N1` too.
**A:** 0.004049

**Q:** What would you report for `O=C1NC(=O)C(=Cc2ccc(O)c([N+](=O)[O-])c2)C(=O)N1` ?
**A:** 0.004748

###

Kindly supply the reported activity at 0.78125 µM values for the records listed here.
target: LbDHODH (Leishmania braziliensis, UniProt E9AI53); assay: biochemical; details: 0 h, pH 8.15, read-out: LbDHODH Activity±SD (%)
State the answer as a number, implicitly in %.

**Q:** // activity at 0.78125 µM lookup, key: `COc1cc(C=C2C(=O)NC(=O)NC2=O)ccc1O`
**A:** 92

**Q:** Also need `O=C1NC(=O)C(=Cc2ccc(N3CCOCC3)cc2[N+](=O)[O-])C(=O)N1` , thanks.
**A:** 83

**Q:** Same thing, different compound: `O=C1NC(=O)C(=Cc2cccc(O)c2)C(=O)N1`
**A:** 90

**Q:** Then `O=C1NC(=O)C(=Cc2ccc(-c3ccccc3)cc2)C(=O)N1` ?
**A:** 94

**Q:** Quick one: `O=C1NC(=O)C(=C/C=C/c2ccccc2)C(=O)N1`
**A:** 72

**Q:** Field entry: `O=C1NC(=O)C(=Cc2ccc(C(=O)O)cc2)C(=O)N1`
**A:** 100

**Q:** Now consider `O=C1NC(=O)C(=Cc2ccccc2)C(=O)N1` and answer again.
**A:** 110

**Q:** Try this compound too: `O=C1NC(=O)C(=Cc2ccc(O)c([N+](=O)[O-])c2)C(=O)N1`
**A:** 75

###

Please respond with reported Kobs for every item in the list.
molecular target: LbDHODH (Leishmania braziliensis); experiment: Kinact/KI determination from LbDHODH progress curves (kobs vs inhibitor concentration); assay type: biochemical; details: inhibitor 0.78125 µM
Report as a plain number; the unit s⁻¹ is understood.

**Q:** Kobs lookup needed for `O=C1NC(=O)C(=Cc2ccccc2)C(=O)N1` , thanks.
**A:** 0.003327

**Q:** One more compound: `O=C1NC(=O)C(=Cc2ccc(O)c([N+](=O)[O-])c2)C(=O)N1`
**A:** 0.003424

**Q:** `O=C1NC(=O)C(=Cc2cccc(O)c2)C(=O)N1` , same question.
**A:** 0.003674

**Q:** Entry to check: `O=C1NC(=O)C(=C/C=C/c2ccccc2)C(=O)N1`
**A:** 0.003309

###

assay: Mouse liver microsome stability in the absence of cofactors (NCF); settings: mouse, microsomes, pH 7.4, % Remaining, T=60 NCF, n=1, mouse liver microsomes, 1 µM, 60 min, no cofactor (NCF), n=1
measured_property: remaining at 1 h, 1 µM (%)
Report as a plain number; the unit % is understood.

**Q:** What remaining at 1 h, 1 µM value was documented for this molecule, `O=C1NC(=O)C(=Cc2ccc(N3CCOCC3)cc2[N+](=O)[O-])C(=O)N1` ?
**A:** 100

**Q:** And `O=C1NC(=O)C(=Cc2ccc(-c3ccccc3F)[nH]2)C(=O)N1` ?
**A:** 1

**Q:** Try `COc1cc(C=C2C(=O)NC(=O)NC2=O)ccc1O` next.
**A:** 52.4

**Q:** Try this molecule next: `O=C1NC(=O)C(=C/C=C/c2ccccc2)C(=O)N1`
**A:** 26.3

###

target: LbDHODH (Leishmania braziliensis); experiment: biochemical; conditions: IC50 0 h, LbDHODH, without preincubation
measured_property: IC50

**Q:** Need IC50 of `O=C1NC(=O)C(=Cc2ccc(C(=O)O)cc2)C(=O)N1` , thanks.
**A:** > 100 µM

**Q:** Please answer likewise for `O=C1NC(=O)C(Cc2ccc(C(=O)O)cc2)C(=O)N1`
**A:** > 100 µM

**Q:** Thanks! And `O=C1NC(=O)C(=Cc2ccccc2)C(=O)N1` ?
**A:** 56 µM

**Q:** Then this molecule: `COc1cc(CC2C(=O)NC(=O)NC2=O)ccc1O`
**A:** > 100 µM

**Q:** And for `O=C1NC(=O)C(=Cc2ccc(-c3ccccc3F)[nH]2)C(=O)N1` ?
**A:** > 100 µM

**Q:** Please give the result for `O=C1NC(=O)C(=Cc2ccc(-c3ccccc3)cc2)C(=O)N1` too.
**A:** 160 µM

###

details: mouse liver microsomes, 5 min, replicate 2 (right block), raw LC-MS area
measured_property: Raw data: analyte peak area, T=5

**Q:** Return reported Raw data: analyte peak area, T=5; argument: `O=C1NC(=O)C(=Cc2ccc(N3CCOCC3)cc2[N+](=O)[O-])C(=O)N1`
**A:** 20171

**Q:** Let us now turn to `O=C1NC(=O)C(=C/C=C/c2ccccc2)C(=O)N1`
**A:** 1160

**Q:** Then `O=C(O)Cc1ccccc1Nc1c(Cl)cccc1Cl` ?
**A:** 16757

**Q:** Next record, please: CC(C)NCC(O)COc1cccc2ccccc12 (stereo not shown)
**A:** 55807

###

molecular target: LbDHODH (Leishmania braziliensis); assay: biochemical; details: 0 h, pH 8.15, read-out: LbDHODH Activity±SD (%)
measured_property: activity at 100 µM (%)
API: value field is a number in %; no unit string.

**Q:** Query activity at 100 µM on LbDHODH (Leishmania braziliensis) for `O=C1NC(=O)C(=Cc2ccc(-c3ccccc3)cc2)C(=O)N1`
**A:** 62

**Q:** Next molecule: `O=C1NC(=O)C(=Cc2ccc(N3CCOCC3)cc2[N+](=O)[O-])C(=O)N1`
**A:** 10

**Q:** // query: `COc1cc(C=C2C(=O)NC(=O)NC2=O)ccc1O`
**A:** 7

**Q:** // same read-out, input: `O=C1NC(=O)C(=Cc2ccc(O)c([N+](=O)[O-])c2)C(=O)N1`
**A:** 6

**Q:** Next entry: `O=C1NC(=O)C(=Cc2ccccc2)C(=O)N1`
**A:** 36

**Q:** Next molecule: `O=C1NC(=O)C(=Cc2ccc(C(=O)O)cc2)C(=O)N1`
**A:** 65

**Q:** Input `O=C1NC(=O)C(=C/C=C/c2ccccc2)C(=O)N1`
**A:** 6

**Q:** Cool, now `O=C1NC(=O)C(=Cc2cccc(O)c2)C(=O)N1`
**A:** 45
